- System Name: T1, Claudin 18.2 (CLDN18.2), expressed on CHOS-CLDN 18.2 / HEK293-CLDN 18.2 / HCC827-CLDN 18.2 cells (human, UniProt P56856-2 1-261)
- T1 construct: whole, on cells; The species is not repeated for the CHOS-CLDN 18.2 cells; also called claudin-18A2
- Procedure Text: FACS, CHOS-CLDN18.2 cells
Measure Name: EC50
Enter the number, and then the unit.

Qu. Report measured EC50; entry is QP024025 (antibody, human IgG1, V domains shown, also called IMAB362; 175D10(IMAB362)) VH: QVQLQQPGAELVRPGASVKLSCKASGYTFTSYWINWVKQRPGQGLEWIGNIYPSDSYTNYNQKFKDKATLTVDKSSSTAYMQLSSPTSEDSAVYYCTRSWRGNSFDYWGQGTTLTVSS VL: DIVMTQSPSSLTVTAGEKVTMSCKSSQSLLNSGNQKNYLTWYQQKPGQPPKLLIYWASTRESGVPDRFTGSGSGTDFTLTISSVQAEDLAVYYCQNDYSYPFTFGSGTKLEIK
Ans. 0.27 µg/mL

Provenance of the data: patent US20230183352A1
